- PROCEDURE SUMMARY: qHTS assay for identifying genotoxic compounds that show differential cytotoxicity against isogenic chicken DT40 cell lines with known DNA damage response pathways - Rad54/Ku70 mutant cell line (AID 743015); further: nearly all actives have a fitted effect of over 60% in size
- ASSAY CONDITIONS: DT40 Rad54/Ku70 mutant viability, CellTiter-Glo, 40 h; series mostly up to 66.8 µM
Inconclusive results are not listed. Activity calls are given as the source filed them. The call rests on the fitted dose curve; in most records, active means well fitted cell-killing curve with a large enough effect in the repeat runs; inconclusive means weak or mixed curves; inactive means no such curve, though single readings can be large or run the other way.
Please answer using one outcome listed in 1.0 = active, 0.0 = inactive

COMPOUND	CATEGORY
CCCCCCOC(=O)CCCCC(=O)OCCCCCC	0.0
C1CN(CCOCCN2CCOCC2)CCO1	0.0
O=C[C@H](O)[C@@H](O)[C@H](O)[C@H](O)CO	0.0

Asked: Each compound tested received a call. Report the one for `C=C(C)C(=O)OCCCCCCCC(C)C` .
Given back: 0.0

Asked: Hello, I am checking results. What call was entered for `c1cnc(N2CCN(Cc3ccc4c(c3)OCO4)CC2)nc1` ?
Given back: 0.0

Numbers sourced from PubChem BioAssay (Tox21).
